B1: TOR1AIP2 (parent)
chain: DGAGRTWQDSDTVKLLVDLELSYG

Variants of: B1
assay-name: protein stability index of a GFP-peptide fusion (GPS, HEK-293T) (PSI 1-6); higher = more stable;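 note: lentivirally expressed fusions sorted by FACS into six bins by GFP to DsRed ratio, PSI derived from sequencing read proportions per bin multiplied by bin number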
assay-setup: c terminus: a fixed tail appended
readout-label: protein stability index
Enter the number alone.

Example results:
V17C :: 1.92
L16T :: 3.66
Y23E :: 1.85
L15A :: 3.7

Data request, read-out protein stability index, for D11I
3.92

The reported numbers originate from the supplement of paper PMC10567573.
